Entry source: PubChem BioAssay AID651582

assay.details: inhibitors of triacylglycerol accumulation, primary screen, cell-based, uHTS, fluorescence, H9c2 (AID 651582)
condition.parameters: H9c2 cells, Nile Red lipid (TAG) fluorescence, at 12.5 µM, cells loaded with 200 µM oleic acid; measured here: DAPI nuclei count viability
Among all 230,000 compounds or so, about 1,500 (0.65%) were called active. This is one part of a sample in which actives are shown more often than they occur.
readout.type: DAPI nuclei signal change (viability), lower = more cytotoxic (%)

molecule=CN(C)C(=O)c1cccc(-c2cnc3c(NC=O)cc(-c4ccc(C(=O)N5CCOCC5)cc4)cn23)c1 output_unit=% value_observed=-40.1
molecule="C=CCn1c(SCc2c(C)noc2C)nc2sc3c(c2c1=O)CCC(C)C3 (centres undefined)" output_unit=% value_observed=-30.5
molecule=CCOC(=O)Cc1ncccc1C(=O)Nc1ccc(OC(F)(F)F)cc1 output_unit=% value_observed=-10.3
molecule=CC(=O)c1cccc(-c2cnc3c(NC=O)cc(-c4ccc(N(C)C)cc4)cn23)c1 output_unit=% value_observed=-34.1
molecule=CN(C)CCNC(=O)c1cccc(-c2cnc3c(NC=O)cc(-c4cccc(C(F)(F)F)c4)cn23)c1 output_unit=% value_observed=-5.39
molecule=COc1cc(OC)cc(C(=O)NNC(=O)CCOc2ccccc2OC)c1 output_unit=% value_observed=-6.59
molecule=COc1cccc(NC(=O)CN(C)C(=O)c2ccccc2CCc2ccccc2)c1 output_unit=% value_observed=-2.81
molecule=CC(=O)c1cccc(-c2cnc3c(NC=O)cc(-c4cccc(C(=O)N(C)C)c4)cn23)c1 output_unit=% value_observed=-7.72
molecule=CS(=O)(=O)/C(C#N)=C/c1cccn1S(=O)(=O)c1ccc([N+](=O)[O-])cc1 output_unit=% value_observed=8.58

---

assay.details: inhibitors of triacylglycerol accumulation, primary screen, cell-based, uHTS, fluorescence, H9c2 (AID 651582)
condition.parameters: H9c2 cells, Nile Red lipid (TAG) fluorescence, at 12.5 µM, cells loaded with 200 µM oleic acid; measured here: DAPI nuclei count viability
Out of some 230,000 compounds screened, about 1,500 (0.65%) were called active. The full list was thinned out, with actives kept by preference.
readout.type: DAPI nuclei signal change (viability), lower = more cytotoxic (%)

compound="COc1cc(C(=O)NCC(c2ccco2)N2CCCC2)ccc1OCc1ccccc1 (configuration not stated)" value_observed=9.22
compound=COc1ccc(C(=O)NCc2ccccc2C)cc1S(=O)(=O)NC1CCCC1 value_observed=1.26
compound="COc1ccc(-c2ccc(CN3C(CC(C)C)C(=O)N(Cc4cn(CC5CCCCC5)nn4)CCS3(=O)=O)cc2)cn1 (configuration not stated)" value_observed=-15.9
compound=Nc1ccccc1Sc1ccc(C(F)(F)F)cc1[N+](=O)[O-] value_observed=8.68
compound="CCN(CC)CCC(c1ccc2c(c1)OCO2)c1c(OC)cc(OC)c2c(-c3ccccc3)cc(=O)oc12 (configuration not stated)" value_observed=-32.4
compound="O=C(Nc1nc2c(F)cc(F)cc2s1)C1COc2ccccc2O1 (configuration not stated)" value_observed=-6.26
compound=COc1ccccc1NC1=NC2(CCCC2)N=C(N)N1 value_observed=-8.79
compound="COc1ccc(C(O)c2nc(-c3ccc(OC)nc3)cs2)cc1 (configuration not stated)" value_observed=4.55
compound="CCCNC(=O)c1cc(C2CCCCN2S(=O)(=O)c2cn(C)cn2)on1 (configuration not stated)" value_observed=4.91
compound="CCN(CC)CCC(c1cc(OC)c(OC)c(OC)c1)c1c(OC)cc(OC)c2c(-c3ccccc3)cc(=O)oc12 (configuration not stated)" value_observed=-19.6
compound="Nc1ccccc1SC(C[N+](=O)[O-])c1ccccc1 (configuration not stated)" value_observed=-46.5
compound=O=C(Nc1ccc(-c2csc(Nc3cccc(C(F)(F)F)c3)n2)cc1)c1cccc(C(F)(F)F)c1 value_observed=-19.5
compound=COC(C[C@H](O)CC(=O)[C@@H](C)OCc1ccccc1)OC value_observed=5.4
compound="COc1ccc(OC)c2sc(NC(=O)C3COc4ccccc4O3)nc12 (configuration not stated)" value_observed=-0.689
compound=COC(C[C@H](O)CC(=O)COCc1ccccc1)OC value_observed=-39.1
compound=N#Cc1ccc(-c2ccc3nccn3c2)cc1 value_observed=18.4
compound=CCS(=O)(=O)c1cc([N+](=O)[O-])c(Sc2ccccc2N)s1 value_observed=-4.87
compound=CCCC[C@H]1COCCS(=O)(=O)N1Cc1cccc(Cl)c1 value_observed=-5.51
compound="CC1CCC2(CC1)NC(=O)N(CC(=O)c1ccc3c(c1)OCO3)C2=O (configuration not stated)" value_observed=5.46
compound=Cn1c(CCN2CCN(c3ccccn3)CC2)nc2cc(NS(=O)(=O)c3ccc(F)cc3)ccc21 value_observed=6.59
compound="COc1ccc(-c2ccc3c(c2)C2CC3CCN2CCC#N)cc1 (configuration not stated)" value_observed=3.73
compound=COC(C[C@@H](O)C[C@H](O)[C@H](C)OCc1ccccc1)OC value_observed=5.91
